Listed below: inhibition at […] values for each entry.
assay.system: BIR3 domain of human cIAP-1 (residues 267-363) (Homo sapiens (Human), UniProt Q13490)
method.summary: cIAP-1 in vitro competitive displacement binding assay (fluorescence polarization; Probe A AVPIK(5&6FAM)-amide or Probe B AbuRPFK(5&6FAM)-amide)
measurement.context: 3 h, read-out: IC50 or PI cIAP1: PI
Where a name gives a salt, the structure may show the parent alone.
Please answer in the form of a number followed by its unit of measurement.

// sample C[C@@H]1CN(CC(=O)N2CC(C)(C)c3ncc(Cc4ccccc4F)cc32)[C@@H](CN2CC[C@@H](F)C2)CN1 [Example 250, dihydrochloride] , its inhibition at […] was 89%

====

The entries below are paired with their reported pIC50.
assay.system: BIR3 domain of human XIAP (residues 252-350) (Homo sapiens (Human), UniProt P98170)
method.summary: XIAP in vitro competitive displacement binding assay (fluorescence polarization)
measurement.context: read-out: IC50 or PI Xiap: IC50
Structures can show the parent of a compound that is named as a salt.
Just the number, please; pIC50 means minus log10 of the concentration in mol/L.

// solved cases for pIC50 follow
CCC1(CC)CN(C(=O)CN2C[C@@H](C)NC[C@@H]2C(=O)N2CCOCC2)c2cc(Cl)ccc21 [Example 135, hydrochloride]    6.40
COC[C@H]1CN[C@H](C)CN1CC(=O)N1CC(C)(C)c2cnc(-c3ccc(C)s3)cc21 [Example 148, dihydrochloride]    6.44

Next up:
The molecule listed as CNS(=O)(=O)c1ccc2c(c1)N(C(=O)CN1C[C@@H](C)NC[C@@H]1COC)CC2(C)C [Example 61, dihydrochloride salt] has a reported pIC50 of 6.66

====

Parameter: inhibition at […]. Scope: all listed entries.
assay.system: BIR3 domain of human cIAP-1 (residues 267-363) (Homo sapiens (Human), UniProt Q13490)
method.summary: cIAP-1 in vitro competitive displacement binding assay (fluorescence polarization; Probe A AVPIK(5&6FAM)-amide or Probe B AbuRPFK(5&6FAM)-amide)
measurement.context: 3 h, read-out: IC50 or PI cIAP1: PI
Where a name gives a salt, the structure may show the parent alone.

CCCC(F)(F)c1cnc2c(c1)N(C(=O)CN1C[C@@H](C)NC[C@@H]1CN1CCOC[C@H]1C)CC2(C)C [Example 260, dihydrochloride]    90%
C[C@@H]1CN(CC(=O)N2CC(C)(C)c3cnc(Cc4ccc(F)cc4F)cc32)[C@@H](CN2CC[C@@H](F)C2)CN1 [Example 203, dihydrochloride]    97%
C[C@@H]1CN(CC(=O)N2CC(C)(C)c3cnc(Cc4ccc(F)cc4F)cc32)[C@@H](CN2CCOCC2)CN1 [Example 219, dihydrochloride]    93%
C[C@@H]1CN(CC(=O)N2CC(C)(C)c3cnc(Cc4ccc(F)cc4)cc32)[C@@H](CN2CCOC[C@H]2C)CN1 [Example 251, dihydrochloride]    99%
C[C@@H]1CN(CC(=O)N2CC(C)(C)c3ncc(Cc4ccccc4F)cc32)[C@@H](CN2CCOCC2)CN1 [Example 247, dihydrochloride]    80%
C[C@@H]1CN(CC(=O)N2CC(C)(C)c3ncc(C(F)(F)CC4CC4)cc32)[C@@H](CN2CCCC2=O)CN1 [Example 230, formate]    60%

Now let's try a different one.
// assay BIR3 domain of human cIAP-1 (residues 267-363) (Homo sapiens (Human), UniProt Q13490), entry Cc1cnn(C[C@H]2CN[C@H](C)CN2CC(=O)N2CC(C)(C)c3cnc(C(F)(F)c4ccccc4)cc32)c1 [Example 159, dihydrochloride] , inhibition at […] value = 72%
